B1: MIA2 (parent)
chain: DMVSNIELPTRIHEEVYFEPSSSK

variants of: B1; experiment: protein stability index of a GFP-peptide fusion (GPS, HEK-293T) (PSI 1-6); higher = more stable; conditions: c terminus: a fixed tail appended;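 note: lentivirally expressed fusions sorted by FACS into six bins by GFP to DsRed ratio, PSI derived from sequencing read proportions per bin multiplied by bin number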
Reported protein stability index is given for each of the following variants.
Write the value as a bare number.

| variant label | protein stability index |
| --- | --- |
| T10I | 3.94 |
| K24T | 4.02 |
| E19Q | 3.29 |
| S22C | 3.89 |
| P20G | 4.16 |

Which protein stability index is listed for K24G ?
4.55

Which protein stability index is listed for Y17T ?
4.28
